- System: HCC-366
- Measurement Description: relative viability (nuclei count vs DMSO), 5 days (fraction); higher = more cells survive
- Conditions: first compound 0.1581 µM
Observable: relative viability
Answers are plain numbers.

COc1cc2nccc(Oc3ccc(NC(=O)Nc4cc(C)on4)c(Cl)c3)c2cc1OC [Tivozanib] + Nc1nc2[nH]cc(CCc3ccc(C(=O)N[C@@H](CCC(=O)O)C(=O)O)cc3)c2c(=O)[nH]1 [Pemetrexed] (partner 0.2 µM) :: 0.234

Pending molecule:
Query: Param item = COc1cc2nccc(Oc3ccc(NC(=O)Nc4cc(C)on4)c(Cl)c3)c2cc1OC [Tivozanib] + Cc1cc(Nc2cc(N3CCN(C)CC3)nc(Sc3ccc(NC(=O)C4CC4)cc3)n2)n[nH]1 [Tozasertib] (partner 0.1 µM) ; retrieve measured relative viability.
Response: 0.137

====

- System: NCI-H1666
- Measurement Description: relative viability (nuclei count vs DMSO), 5 days (fraction); higher = more cells survive
- Conditions: first compound 50 µM
For each of the compounds below, state its relative viability.
One number for each entry.

O=C(O)CCCCC(CCSCc1ccccc1)SCc1ccccc1 (stereo not given) [CPI-613] + C[C@]1(O)C[C@@H](c2nc(-c3ccc4ccc(-c5ccccc5)nc4c3)c3c(N)nccn32)C1 [Linsitinib] (partner 1 µM) :: 0.789
O=C(O)CCCCC(CCSCc1ccccc1)SCc1ccccc1 (stereo not given) [CPI-613] + Cc1nc(Nc2ncc(C(=O)Nc3c(C)cccc3Cl)s2)cc(N2CCN(CCO)CC2)n1 [Dasatinib] (partner 0.075 µM) :: 0.749

For each of the compounds below, state relative viability.
1. O=C(O)CCCCC(CCSCc1ccccc1)SCc1ccccc1 (stereo not given) [CPI-613] + CCNC(=O)c1noc(-c2cc(C(C)C)c(O)cc2O)c1-c1ccc(CN2CCOCC2)cc1 [Luminespib] (partner 0.01 µM)
2. O=C(O)CCCCC(CCSCc1ccccc1)SCc1ccccc1 (stereo not given) [CPI-613] + CC(=O)Nc1cccc(-n2c(=O)n(C3CC3)c(=O)c3c(Nc4ccc(I)cc4F)n(C)c(=O)c(C)c32)c1 [Trametinib] (partner 0.02 µM)

Response:
1: 1.12; 2: 0.796

Query: # lookup: relative viability of O=C(O)CCCCC(CCSCc1ccccc1)SCc1ccccc1 (stereo not given) [CPI-613] + CC(C)C[C@H](NC(=O)[C@H](Cc1ccccc1)NC(=O)c1cnccn1)B(O)O [Bortezomib] (partner 0.002 µM)
Response: 0.757

====

- Test system: 201T
- Measurement Description: relative viability (nuclei count vs DMSO), 5 days (fraction); higher = more cells survive
- Conditions: first compound 0.005 µM
Rule: relative viability below 1 gives fulfilled. Equal to or above 1 gives not fulfilled.

Look over these answered cases.
Nc1ccn([C@@H]2O[C@H](CO)[C@@H](O)[C@@H]2O)c(=O)n1 [Cytarabine] + CCNC(=O)c1noc(-c2cc(C(C)C)c(O)cc2O)c1-c1ccc(CN2CCOCC2)cc1 [Luminespib] (partner 0.01 µM) :: not fulfilled
Nc1ccn([C@@H]2O[C@H](CO)[C@@H](O)[C@@H]2O)c(=O)n1 [Cytarabine] + CC(=O)c1c(C)c2cnc(Nc3ccc(N4CCNCC4)cn3)nc2n(C2CCCC2)c1=O [Palbociclib] (partner 0.5 µM) :: fulfilled
Nc1ccn([C@@H]2O[C@H](CO)[C@@H](O)[C@@H]2O)c(=O)n1 [Cytarabine] + Cc1cc(Nc2cc(N3CCN(C)CC3)nc(Sc3ccc(NC(=O)C4CC4)cc3)n2)n[nH]1 [Tozasertib] (partner 0.1 µM) :: fulfilled

Query: Is the reported relative viability for COc1cc2nccc(Oc3ccc(NC(=O)Nc4cc(C)on4)c(Cl)c3)c2cc1OC [Tivozanib] + N=C(N)NC(=N)NCCc1ccccc1 [Phenformin] (partner 250 µM) strictly below 1?
Response: fulfilled

Query: Subsequent entry: COc1cc2nccc(Oc3ccc(NC(=O)Nc4cc(C)on4)c(Cl)c3)c2cc1OC [Tivozanib] + CC1(C)CCC(c2ccc(Cl)cc2)=C(CN2CCN(c3ccc(C(=O)NS(=O)(=O)c4ccc(N[C@H](CCN5CCOCC5)CSc5ccccc5)c(S(=O)(=O)C(F)(F)F)c4)cc3)CC2)C1 [Navitoclax] (partner 0.5 µM)
Response: not fulfilled

====

Assignment: determine reported relative viability for the given compounds.
- Test system: IA-LM
- Measurement Description: relative viability (nuclei count vs DMSO), 5 days (fraction); higher = more cells survive
- Conditions: first compound 0.05 µM
Give bare numbers.

In the examples that follow, each entry is paired with its recorded relative viability.
COc1cc2nccc(Oc3ccc(NC(=O)Nc4cc(C)on4)c(Cl)c3)c2cc1OC [Tivozanib] + Cc1nc(NC(=O)N2CCC[C@H]2C(N)=O)sc1-c1ccnc(C(C)(C)C(F)(F)F)c1 [Alpelisib] (partner 2 µM) :: 0.718
Nc1ccn([C@@H]2O[C@H](CO)[C@@H](O)[C@@H]2O)c(=O)n1 [Cytarabine] + CC(C)C[C@H](NC(=O)[C@H](Cc1ccccc1)NC(=O)c1cnccn1)B(O)O [Bortezomib] (partner 0.002 µM) :: 0.648
Nc1ccn([C@@H]2O[C@H](CO)[C@@H](O)[C@@H]2O)c(=O)n1 [Cytarabine] + O=C(c1cc(Cc2n[nH]c(=O)c3ccccc23)ccc1F)N1CCN(C(=O)C2CC2)CC1 [Olaparib] (partner 8 µM) :: 0.55
Nc1ccn([C@@H]2O[C@H](CO)[C@@H](O)[C@@H]2O)c(=O)n1 [Cytarabine] + O=C(CCCCCCC(=O)Nc1ccccc1)NO [Vorinostat] (partner 1 µM) :: 1.07

Query: Any idea what relative viability came out for COc1cc2nccc(Oc3ccc(NC(=O)Nc4cc(C)on4)c(Cl)c3)c2cc1OC [Tivozanib] + C[C@@H](Oc1cc(-c2cnn(C3CCNCC3)c2)cnc1N)c1c(Cl)ccc(F)c1Cl [Crizotinib] (partner 1 µM) on IA-LM?
Response: 1.04

====

- System: NCI-H2405
- Measurement Description: relative viability (nuclei count vs DMSO), 5 days (fraction); higher = more cells survive
- Conditions: first compound 0.005 µM
Field: relative viability. Provide a value for each of the compounds that follow.
One number for each entry.

Hello, I would appreciate it if you could give relative viability for each entry below.
1. COc1cc2nccc(Oc3ccc(NC(=O)Nc4cc(C)on4)c(Cl)c3)c2cc1OC [Tivozanib] + N=C(N)NC(=N)NCCc1ccccc1 [Phenformin] (partner 250 µM)
2. COc1cc2nccc(Oc3ccc(NC(=O)Nc4cc(C)on4)c(Cl)c3)c2cc1OC [Tivozanib] + C[C@@H](Oc1cc(-c2cnn(C3CCNCC3)c2)cnc1N)c1c(Cl)ccc(F)c1Cl [Crizotinib] (partner 1 µM)
3. COc1cc2nccc(Oc3ccc(NC(=O)Nc4cc(C)on4)c(Cl)c3)c2cc1OC [Tivozanib] + Nc1ncn([C@H]2C[C@H](O)[C@@H](CO)O2)c(=O)n1 [Decitabine] (partner 2 µM)

Response:
0.418
0.859
0.676

====

Please provide measured relative viability for the entries that follow.
- Tested on: NCI-H2342
- Measurement Description: relative viability (nuclei count vs DMSO), 5 days (fraction); higher = more cells survive
- Conditions: first compound 0.1265 µM

Please review the entries below; each comes with its answer.
Cc1sc2c(c1C)C(c1ccc(Cl)cc1)=N[C@@H](CC(=O)OC(C)(C)C)c1nnc(C)n1-2 [JQ1] + NC(=O)Nc1cc(-c2cccc(F)c2)sc1C(=O)N[C@H]1CCCNC1 [AZD7762] (partner 0.2 µM) :: 0.475
Cc1sc2c(c1C)C(c1ccc(Cl)cc1)=N[C@@H](CC(=O)OC(C)(C)C)c1nnc(C)n1-2 [JQ1] + COc1cccc2cc(-c3nc([C@H]4CC[C@H](C(=O)O)CC4)n4ncnc(N)c34)[nH]c12 [OSI-027] (partner 0.5 µM) :: 0.605
Cc1sc2c(c1C)C(c1ccc(Cl)cc1)=N[C@@H](CC(=O)OC(C)(C)C)c1nnc(C)n1-2 [JQ1] + O=C(CCCCCCC(=O)Nc1ccccc1)NO [Vorinostat] (partner 1 µM) :: 0.592
Cc1sc2c(c1C)C(c1ccc(Cl)cc1)=N[C@@H](CC(=O)OC(C)(C)C)c1nnc(C)n1-2 [JQ1] + Nc1ncn([C@H]2C[C@H](O)[C@@H](CO)O2)c(=O)n1 [Decitabine] (partner 2 µM) :: 0.636
Cc1sc2c(c1C)C(c1ccc(Cl)cc1)=N[C@@H](CC(=O)OC(C)(C)C)c1nnc(C)n1-2 [JQ1] + CC(=O)Nc1cccc(-n2c(=O)n(C3CC3)c(=O)c3c(Nc4ccc(I)cc4F)n(C)c(=O)c(C)c32)c1 [Trametinib] (partner 0.02 µM) :: 0.8

Field: next compound
Query: Entry Cc1sc2c(c1C)C(c1ccc(Cl)cc1)=N[C@@H](CC(=O)OC(C)(C)C)c1nnc(C)n1-2 [JQ1] + O=C(c1cc(Cc2n[nH]c(=O)c3ccccc23)ccc1F)N1CCN(C(=O)C2CC2)CC1 [Olaparib] (partner 8 µM) has what relative viability?
Response: 0.501
